Target: T1, human amylin 3(a) receptor (human calcitonin receptor + RAMP-3) (human, UniProt P30988 25-474; O60896 24-148)
T1 sequence (looked up) 1: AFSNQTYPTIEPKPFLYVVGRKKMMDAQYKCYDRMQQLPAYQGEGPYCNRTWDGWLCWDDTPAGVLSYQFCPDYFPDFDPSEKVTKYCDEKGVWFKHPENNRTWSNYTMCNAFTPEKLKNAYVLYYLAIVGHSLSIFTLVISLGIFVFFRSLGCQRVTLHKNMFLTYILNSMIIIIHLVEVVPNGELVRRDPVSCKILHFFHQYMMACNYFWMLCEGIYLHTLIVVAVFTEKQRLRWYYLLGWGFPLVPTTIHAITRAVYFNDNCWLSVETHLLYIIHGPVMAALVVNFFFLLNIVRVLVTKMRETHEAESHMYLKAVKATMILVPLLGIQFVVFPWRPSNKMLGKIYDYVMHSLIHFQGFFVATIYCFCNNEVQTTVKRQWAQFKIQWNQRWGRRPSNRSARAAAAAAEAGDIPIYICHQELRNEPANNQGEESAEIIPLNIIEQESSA
T1 sequence (looked up) 2: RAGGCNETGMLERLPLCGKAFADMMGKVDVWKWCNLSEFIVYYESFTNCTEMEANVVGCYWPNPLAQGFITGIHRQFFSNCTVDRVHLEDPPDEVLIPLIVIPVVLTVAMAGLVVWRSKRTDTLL
Assay: cell-based or functional assay
Starred links: 1 amine or outer side, 2 acyl side, 3 side chain; linkers in the order of their positions; H or OH if unused. Positions of bridges follow the written chain, without caps; N, C: chain ends. Non-standard residues stand in square brackets, D forms with d. Groups on a side chain read outwards from the residue. No end group written: not given here. *: point of attachment. C20 diacid = O=C(O)CCCCCCCCCCCCCCCCCCC(=O)*; 19‑carboxyheptadecanoyl = not defined here; γGlu = O=C(O)[C@H](CCC(=O)[*:2])N[*:1]; AEEA = NCCOCCOCC(=O)O
Rule: Amylin receptor human EC50 under 400 pM gives not met, otherwise met.

Below, 5 binders whose answers are already recorded.
binder	qualitative-label
{C20 diacid-γGlu}-KCNTATCATQRLAEFLHHSSNNFGPILPPTNVGSNTP-NH2 (disulfide 2-7; not fully specified; printed as N-alpha-[(S)-4-Carboxy-4-(19-carboxynonadecanoylamino)butyryl]-[Glu14,His17,Pro37]-pramlintide) [N-alpha-[(S)-4-Carboxy-4-(19-carboxynonadecanoylamino)butyryl]-[Glu14,His17,Pro37]-pramlintide]	not met
KCNTATCATQRLAEFLHHSSSNFGK([AEEA-AEEA-γGlu-19‑carboxyheptadecanoyl])ILSSTNVGSHTY-NH2 (disulfide 2-7)	met
{19‑carboxyheptadecanoyl-γGlu-AEEA-AEEA}-HCNTATCATQRLAEFLHHSSSNFGPILPPTNVGSHTY-NH2 (disulfide 2-7; reading uncertain; also: printed as N-alpha-[2-(2-{2-[2-(2-{2-[(S)-4-Carboxy-4-(19-carboxyheptadecanoylamino)butyrylamino]ethoxy}ethoxy)acetylamino]ethoxy}ethoxy)acetyl]-[His1,Glu14,His17,Ser21,His35]-pramlintide)	met
{19‑carboxyheptadecanoyl-γGlu-AEEA-AEEA}-[dR][dR]KCNTATCATQRLAEFLHRSSNNFGPILPPTNVGSNTY-NH2 (disulfide 4-9; reading uncertain; also: printed as N-alpha-[2-(2-{2-[2-(2-{2-[(S)-4-Carboxy-4-(19-carboxyheptadecanoylamino)butyrylamino]ethoxy}ethoxy)acetylamino]ethoxy}ethoxy)acetyl]-D-Arg-D-Arg-[Glu14,His17,Arg18]-pramlintide)	not met
KCNTATCATQRLAEFLHHSSK([AEEA-AEEA-γGlu-19‑carboxyheptadecanoyl])NFGPILSPTNVGSHTY-NH2 (disulfide 2-7)	met

query: Record {19‑carboxyheptadecanoyl-γGlu-AEEA-AEEA}-KCNTATCATQRLAEFLHHSSSNFGPILPPTNVGSHTY-NH2 (disulfide 2-7; reading uncertain; also: printed as N-alpha-[2-(2-{2-[2-(2-{2-[(S)-4-Carboxy-4-(19-carboxyheptadecanoylamino)butyrylamino]ethoxy}ethoxy)acetylamino]ethoxy}ethoxy)acetyl]-[Glu14,His17,Ser21,His35]-pramlintide) ; criterion: Amylin receptor human EC50 no lower than 400 pM. Met?
result: met
